Read-out: solute carrier (SLC22A1), SLC22A1 (gene 6580)
assay details: LTEA_HepaRG_SLC22A1: Life Technologies and Expression Analysis (LTEA) Assay for solute carrier (SLC22A1) using HepaRG (AID 2283524)
details: mRNA level, 48 h; actives raise or lower the signal
Active and inactive are the calls of the source. How the source made its calls: active means hit-call score of the fitted dose curve at least 0.9, where 1 is the maximum; inactive means score below 0.9.
Hi! Could you answer with just one of these? active, inactive

* CCCCC=O | inactive
* OCC(CO)(CBr)CBr | inactive
* CCCCCCCCCCCCCCC | inactive
* O=C1NS(=O)(=O)c2ccccc21 | inactive
* N=C(N)c1ccc(OCCCCCOc2ccc(C(=N)N)cc2)cc1 | active

Query block: Check the results log: what was the call for CCC(C)c1ccccc1O (stereo not drawn) ?
Result block: inactive

Query block: Which outcome did this test record for the molecule Cc1[nH]nc2c1N=C(c1ccccc1Cl)c1cc([N+](=O)[O-])ccc1N2 ?
Result block: active

Query block: Recorded test outcome, item CS(=O)(=O)c1ccc([C@@H](CC2CCCC2)C(=O)Nc2cnccn2)cc1Cl
Result block: active

---

system tested: human Thromboxane A2 Receptor (TXA2), TBXA2R (gene 6915)
assay details: NVS_GPCR_hTXA2: NovaScreen (NVS) G Protein-Coupled Receptor Assay for human Thromboxane A2 Receptor (TXA2) (AID 2283282);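 further: actives reduce bound radioligand signal relative to DMSO baseline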
Records with an inconclusive call do not appear. Activity calls are given as the source filed them. Rule for the calls: active = hit-call score of the fitted dose curve at least 0.9, where 1 is the maximum; inconclusive = response in the unintended direction; inactive = score below 0.9.
assay endpoint: AC50

- CCCCCCCC(OC)OC: 74.8 nM (active)
- O=C1OC2(c3ccccc31)c1cc(I)c(O)c(I)c1Oc1c2cc(I)c(O)c1I: 1240 nM (active)
- Clc1ccc(Nc2nnc(Cc3ccncc3)c3ccccc23)cc1: 417 nM (active)
- C=Cc1ccc(O)c(OC)c1: inactive
- CC1=NN(c2ccccc2)C(=O)C1: inactive

Now let's try a different one.
Query block: Enter AC50 (test system human Thromboxane A2 Receptor (TXA2), TBXA2R (gene 6915)) for CC(O)COc1ccccc1 (stereo unspecified)
Result block: inactive

---

system tested: rat Peripheral-type Benzodiazepine Receptor (PBR), Tspo (gene 24230) (UniProt P16257)
Sequence (P16257 whole entry, looked up): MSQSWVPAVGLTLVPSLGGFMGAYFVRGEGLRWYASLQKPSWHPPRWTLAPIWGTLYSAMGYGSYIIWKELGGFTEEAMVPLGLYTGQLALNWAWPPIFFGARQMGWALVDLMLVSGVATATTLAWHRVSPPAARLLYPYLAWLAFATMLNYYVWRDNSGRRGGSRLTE
assay details: NVS_MP_rPBR: NovaScreen (NVS) Membrane Protein Assay for rat Peripheral-type Benzodiazepine Receptor (PBR) (AID 2283335)
Records with an inconclusive call do not appear. Calls of active or inactive are those of the source. Rule for the calls: active = hit-call score of the fitted dose curve at least 0.9, where 1 is the maximum; inconclusive = response in the unintended direction; inactive = score below 0.9.
Respond only with the outcome that fits, drawn from Yes (active), No (inactive)

• CCCCCCCCCCCCCCCCCC[N+](C)(C)Cc1ccccc1 = Yes
• COc1cc(OC)nc(NC(=O)NS(=O)(=O)Nc2ccccc2C(=O)N(C)C)n1 = No

Let's switch to this compound now.
Query block: Record lookup: outcome of this test for CCCCCCCCCCCC ?
Result block: Yes

---

assay details: BSK_LPS_PGE2: BioMAP Diversity Plus: LPS Assay for Prostaglandin E2 (PGE2) Biomarker Activity (AID 2283082)
details: primary human HUVEC with PBMC; actives raise or lower the signal
Calls of active or inactive are those of the source. Rule for the calls: active = hit-call score of the fitted dose curve at least 0.9, where 1 is the maximum; inactive = score below 0.9.
The reply should name one outcome from active, inactive

Past entries and their recorded results:
- CC1=NN(c2ccccc2)C(=O)C1: inactive
- OCCN1CN(CCO)CN(CCO)C1: inactive
- O=C(O)CCC(F)(F)C(F)(F)C(F)(F)C(F)(F)C(F)(F)F: inactive
- C=CC(=O)OCCC(F)(F)C(F)(F)C(F)(F)C(F)(F)C(F)(F)C(F)(F)C(F)(F)C(F)(F)F: inactive
- C=COC(=O)C(C)(C)CCCCCC: inactive

Query block: Kindly provide the recorded test outcome for the following molecule: O=C1NS(=O)(=O)c2ccccc21
Result block: inactive

Query block: Fill in: this test's call for CCCCc1oc2ccccc2c1C(=O)c1cc(I)c(OCCN(CC)CC)c(I)c1 is ___
Result block: inactive

Query block: Hey, what did the test say about CCOC(=O)CN[C@@H](C(=O)N1CC[C@H]1C(=O)NCc1ccc(/C(N)=N/O)cc1)C1CCCCC1 ?
Result block: inactive

Query block: What did this assay record as the result for COc1cc(OC)nc(NC(=O)NS(=O)(=O)Nc2ccccc2C(=O)N(C)C)n1 ?
Result block: inactive

Query block: Call for entry COC1=CC(=O)C[C@@H](C)[C@]12Oc1c(Cl)c(OC)cc(OC)c1C2=O :
Result block: inactive

Query block: Please share the test call associated with CCCCCCCCCCCCCCCCCC[N+](C)(C)Cc1ccccc1 .
Result block: inactive

Query block: How was O=C(NCc1ncc(C(F)(F)F)cc1Cl)c1c(Cl)cccc1Cl classified in this test?
Result block: inactive

Query block: Hi, do you know how O=C(CC(=O)C(F)(F)C(F)(F)C(F)(F)F)c1cccs1 came out in this test?
Result block: inactive

Query block: Hi, do you know how O=C1OC2(c3ccccc31)c1cc(I)c(O)c(I)c1Oc1c2cc(I)c(O)c1I came out in this test?
Result block: active

Query block: Which result was noted for this molecule in the test: N=C(N)c1ccc(OCCCCCOc2ccc(C(=N)N)cc2)cc1
Result block: inactive

Query block: Tell me the recorded outcome of this test for CCCCCCCCCCCCOS(=O)(=O)O .
Result block: inactive

Query block: Kindly provide the recorded test outcome for the following molecule: Clc1ccc(Nc2nnc(Cc3ccncc3)c3ccccc23)cc1
Result block: inactive

Query block: Give the logged outcome of this assay for the following molecule: CCCCC(CC)C(=O)OCCOCCOCCOCCOC(=O)C(CC)CCCC (centres undefined)
Result block: inactive

Query block: What did this assay record as the result for CS(=O)(=O)c1ccc([C@@H](CC2CCCC2)C(=O)Nc2cnccn2)cc1Cl ?
Result block: inactive

---

Read-out: DNA damage-inducible transcript 3 (DDIT3), DDIT3 (gene 1649)
assay details: LTEA_HepaRG_DDIT3: Life Technologies and Expression Analysis (LTEA) Assay for DNA damage-inducible transcript 3 (DDIT3) using HepaRG (AID 2283488)
details: mRNA level, 48 h; actives raise or lower the signal
Active and inactive are the calls of the source. How the source made its calls: active means hit-call score of the fitted dose curve at least 0.9, where 1 is the maximum; inactive means score below 0.9.
Valid outcomes are listed here; reply with one: 1 (active), -1 (inactive)

A selection of reference data follows.
* CN(Cc1cnc2nc(N)nc(N)c2n1)c1ccc(C(=O)N[C@@H](CCC(=O)O)C(=O)O)cc1 | -1
* CCCCC(CC)C(=O)O (stereo not drawn) | -1
* CCCCc1oc2ccccc2c1C(=O)c1cc(I)c(OCCN(CC)CC)c(I)c1 | 1

Query block: Tell me the recorded outcome of this test for CC(=O)Nc1ccc(O)cc1 .
Result block: -1

Query block: Recorded test outcome, item OCC(CO)(CBr)CBr
Result block: -1

Query block: Dear colleague, could you share the recorded outcome for CCCCC=O when you have a moment?
Result block: -1

Query block: Recorded test call requested for O=C(c1ccccc1)c1ccccc1
Result block: -1

Query block: I'd appreciate the recorded outcome for O=C1NS(=O)(=O)c2ccccc21 from this test.
Result block: -1

---

assay details: CCTE_Shafer_MEA_dev_per_burst_spike_percent: CCTE's Neural Network Formation Assay for Percent of Spikes in a Burst, Shafer Lab (AID 2284032)
The source made the active and inactive calls. Rule for the calls: active = hit-call score of the fitted dose curve at least 0.9, where 1 is the maximum; inactive = score below 0.9.
Bench note: report the call from 1 (active), -1 (inactive)

Worked cases, answers included:
* CN(C)CCOC(c1ccccc1)c1ccccc1 | 1
* CN(CCO)S(=O)(=O)C(F)(F)C(F)(F)C(F)(F)C(F)(F)C(F)(F)C(F)(F)C(F)(F)C(F)(F)F | -1
* O=C(C=C(O)C(F)(F)F)C(F)(F)F | -1
* O=C(CCCN1CCC(O)(c2ccc(Cl)cc2)CC1)c1ccc(F)cc1 | 1
* COC(=O)C(F)(F)C(F)(F)C(F)(F)C(F)(F)C(F)(F)F | -1
* FC(F)=C(F)C(F)(F)C(F)(F)C(F)(F)C(F)F | -1
* CC(C)c1c(C(=O)Nc2ccccc2)c(-c2ccccc2)c(-c2ccc(F)cc2)n1CC[C@@H](O)C[C@@H](O)CC(=O)O | 1
* CN(Cc1cnc2nc(N)nc(N)c2n1)c1ccc(C(=O)N[C@@H](CCC(=O)O)C(=O)O)cc1 | 1

Query block: Short answer needed: outcome of this test for CC(=O)Nc1ccc(O)cc1 ?
Result block: -1

Query block: Dear all, I need the recorded test outcome for FCOC(C(F)(F)F)C(F)(F)F , thank you.
Result block: -1

Query block: State the result this test recorded for O=C(OC(=O)C(F)(F)C(F)(F)F)C(F)(F)C(F)(F)F .
Result block: -1

---

Read-out: Epidermal growth factor receptor (EGFR), EGFR (gene 1956)
assay details: BSK_hDFCGF_EGFR: BioMAP Diversity Plus: hDFCGF Assay for Epidermal growth factor receptor (EGFR) Biomarker Activity (AID 2283057)
details: primary human foreskin fibroblasts; actives raise or lower the signal
Activity calls are given as the source filed them. The calls were made as follows: active = hit-call score of the fitted dose curve at least 0.9, where 1 is the maximum; inactive = score below 0.9.
API: response.call in active, inactive

* O=C(c1ccccc1)c1ccccc1 | inactive
* O=S(=O)(O)C(F)(F)C(F)(F)C(F)(F)C(F)(F)C(F)(F)C(F)(F)C(F)(F)C(F)(F)C(F)(F)C(F)(F)F | inactive

Query block: Lab log entry: COCN(COC)c1nc(N(COC)COC)nc(N(COC)COC)n1 — outcome as called in the assay?
Result block: inactive

Query block: Call for entry COC1=CC(=O)C[C@@H](C)[C@]12Oc1c(Cl)c(OC)cc(OC)c1C2=O :
Result block: inactive
